Hi there, I'd appreciate the recorded Inhibition Rate of PAI-1 Activity (%) for every entry that follows.
TEST_TARGET: recombinant human PAI-1 (Homo sapiens, UniProt P05121)
Construct: purchased Molecular Innovations, Inc
Sequence (P05121 24-402): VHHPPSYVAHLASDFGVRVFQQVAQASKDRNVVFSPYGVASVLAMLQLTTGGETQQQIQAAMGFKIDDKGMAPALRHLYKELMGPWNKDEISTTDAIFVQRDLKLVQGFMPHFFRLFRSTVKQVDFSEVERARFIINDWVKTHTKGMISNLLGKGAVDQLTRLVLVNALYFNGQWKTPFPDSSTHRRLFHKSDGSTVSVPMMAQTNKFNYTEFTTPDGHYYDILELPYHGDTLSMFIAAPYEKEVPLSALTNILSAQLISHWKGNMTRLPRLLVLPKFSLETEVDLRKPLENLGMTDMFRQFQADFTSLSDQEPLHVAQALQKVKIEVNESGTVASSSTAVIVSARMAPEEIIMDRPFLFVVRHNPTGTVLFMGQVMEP
EXPERIMENT: Test Example 2: human PAI-1 inhibitory activity (tPA fluorogenic substrate, pH 7.4 HEPES buffer)
Assay type: biochemical
PARTICULARS: human PAI-1; compound concentration 3 μM
Answers are plain numbers, in %.

MOLECULE	MEASURE_UNIT	REPORTED
CCCCC(C(=O)O)N(Cc1ccc(C(C)(C)C)cc1)c1ccc(-c2ccc(OC(F)(F)F)cc2)cc1 (stereo not shown) [Compound 642]	%	93

Lab note: need Inhibition Rate of PAI-1 Activity (%) for CC(C)(C)c1ccc(Oc2cc(-c3cc(Cl)ccc3Cl)ccc2OCC(=O)O)cc1 [Compound 455] on recombinant human PAI-1 (Homo sapiens, UniProt P05121), anyone have it?
99
